Data origin: patent US8017612B2

- Measured On: HCV polymerase (NS5B) type 1a (Hepatitis C virus genotype 1a, UniProt P26664)
- Construct: made in house; host or cells: Escherichia coli (by the 'similar method' of the 1b enzyme)
- Measurement Notes: Assay of enzyme (HCV polymerase) inhibitory activity, type 1a enzyme
- Type: biochemical, HCV type 1a (cloned from the blood of patients)
- Conditions Used: HCV polymerase inhibitory activity IC50, 1a, type 1a enzyme
- Protocol: The evaluation of the HCV polymerase inhibitory activity of the compound of the present invention is explained in the following. This polymerase is an enzyme coded for by the non-structural protein region called NS5B on the genome RNA of HCV. i) Preparation of Enzyme (HCV Polymerase) […] The HCV polymerase inhibitory activity (IC50) of the compound of the present invention was calculated from the values of radioactivity of the enzyme reaction with and without the test substance. […]
Property Label: IC50

stdin: Please give the measured IC50 for this compound: CC(C)(C)c1ccc(CNC(=O)[C@H]2CN(C(=O)/C=C/C(=O)O)CCN2S(=O)(=O)c2ccc(OC(F)(F)F)cc2)cc1 [Example 668]
stdout: > 1000 nM

stdin: // IC50 lookup, key: O=C(NCc1ccc(S(F)(F)(F)(F)F)cc1)[C@H]1CN(c2nc3ncncc3s2)CCN1S(=O)(=O)c1ccc(OC(F)(F)F)cc1 [Example 996]
stdout: < 100 nM

stdin: Which IC50 reading was recorded for the compound O=C(O)c1cncc2ncc(N3CCN(S(=O)(=O)c4ccc(Cl)s4)[C@@H](C(=O)NCc4ccc(OC(F)(F)F)cc4)C3)nc12 [Example 861] ?
stdout: < 100 nM

stdin: I'd like to know its IC50. The compound in question is CCC(F)(F)c1ccc(CNC(=O)[C@H]2CN(c3cnc4cncnc4n3)CCN2S(=O)(=O)c2ccc(C(C)(C)C)cc2)cc1 [Example 695]
stdout: < 100 nM

stdin: Reported IC50, compound CCC(F)(F)c1ccc(CNC(=O)[C@H]2CN(c3cnc4cncnc4n3)CCN2S(=O)(=O)c2ccc(-c3cccs3)cc2)cc1 [Example 709] : ____
stdout: < 100 nM

stdin: Sample CCC(F)(F)c1ccc(CNC(=O)[C@H]2CN(C(=O)NCC(=O)O)CCN2S(=O)(=O)c2ccc(OC(F)(F)F)cc2)cc1 [Example 677] — what was its IC50?
stdout: > 1000 nM

stdin: Sample CNC(=O)c1cc(=O)nc2sc(N3CCN(S(=O)(=O)c4ccc(OC(F)(F)F)cc4)[C@@H](C(=O)NCc4ccc(OC(F)(F)F)cc4)C3)nn12 [Example 990] — what was its IC50?
stdout: < 100 nM

stdin: Endpoint output: IC50 of CCCc1ccc(CNC(=O)[C@H]2CN(c3nc(C)c(S(=O)(=O)NC)s3)CCN2S(=O)(=O)c2ccc(OC(F)(F)F)cc2)cc1 [Example 828] . Value?
stdout: < 100 nM

stdin: Entry O=C(NCc1ccc(OC(F)(F)F)cc1)[C@H]1CN(c2cnc3cccnc3n2)CCN1S(=O)(=O)c1ccc(OC(F)(F)F)cc1 [Example 770] : reported IC50 = ?
stdout: < 100 nM

stdin: Item under review: O=C(NCc1ccc(OC(F)(F)F)cc1)[C@H]1CN(c2nc3cnncc3s2)CCN1S(=O)(=O)c1ccc(OC(F)(F)F)cc1 [Example 879] . Reported IC50?
stdout: < 100 nM

stdin: Look at this compound and give its reported IC50. CCC(F)(F)c1ccc(CNC(=O)[C@H]2CN(c3nc4cccnc4s3)CCN2S(=O)(=O)c2ccc(OC(F)(F)F)cc2)cc1 [Example 739]
stdout: < 100 nM

stdin: # lookup: IC50 of O=C(NCc1ccc(OC(F)F)cc1)[C@H]1CN(c2nn3cnnc3s2)CCN1S(=O)(=O)c1ccc(OC(F)(F)F)cc1 [Example 954]
stdout: < 100 nM

stdin: For the compound shown here, O=C(NCc1ccc(OC(F)(F)F)cc1)[C@H]1CN(c2nc3cn[nH]c(=O)c3s2)CCN1S(=O)(=O)c1ccc([N+](=O)[O-])cc1 [Example 835] , give the reported IC50.
stdout: < 100 nM
